Test: Metabolic stability in human liver microsomes
Format: in vitro ADME
Details: human, human liver microsomes, pH 7.4, incubation with HLMs; read-out: internal clearance CLint
Each item that follows carries a reported CLint scaled at 50 µM.
METRIC: CLint scaled at 50 µM (mL/min/kg)

{"COMPOUND": "O=C([C@@H](c1ccccc1)N1C(=O)CCC1=O)N1CCN(c2cccc(C(F)(F)F)c2)CC1 [(R)-6]", "UNIT TAG": "mL/min/kg", "RECORDED RESULT": 2.4}
{"COMPOUND": "O=C(C(c1ccccc1)N1C(=O)CCC1=O)N1CCN(c2cccc(C(F)(F)F)c2)CC1 (racemic)", "UNIT TAG": "mL/min/kg", "RECORDED RESULT": 5.8}

---

Each item that follows carries a reported melting point.

{"COMPOUND": "O=C(C(c1ccc(F)cc1)N1C(=O)CCC1=O)N1CCN(c2cccc(C(F)(F)F)c2)CC1 (racemic)", "melting point": "88.8 to 90.7 °C"}
{"COMPOUND": "CNC1CC(=O)N(C(C(=O)N2CCN(c3cccc(C(F)(F)F)c3)CC2)c2ccccc2)C1=O.Cl (stereo not shown)", "melting point": "161.2 to 163.4 °C"}
{"COMPOUND": "O=C([C@@H](c1ccccc1)N1C(=O)CCC1=O)N1CCN(c2cccc(OC(F)(F)F)c2)CC1 [(R)-10]", "melting point": "168.2 to 169.1 °C"}
{"COMPOUND": "O=C(C(c1ccccc1)N1C(=O)CCC1=O)N1CCC(c2cccc(Cl)c2)CC1 (racemic)", "melting point": "111.8 to 113.4 °C"}
{"COMPOUND": "O=C(C(c1ccccc1)N1C(=O)CCC1=O)N1CCN(c2cccc(-c3ccccc3)c2)CC1 (racemic)", "melting point": "114.1 to 115.4 °C"}
{"COMPOUND": "O=C(C(c1ccccc1)N1C(=O)CCC1=O)N1CCN(c2cccc(OC(F)(F)F)c2)CC1 (racemic)", "melting point": "100.3 to 101.6 °C"}
{"COMPOUND": "O=C(C(Cc1ccccc1)N1C(=O)CCC1=O)N1CCN(c2ccccc2)CC1 (stereo not shown)", "melting point": "121.7 to 123.2 °C"}

---

{"COMPOUND": "O=C(C(Cc1ccccc1)N1C(=O)CCC1=O)N1CCN(c2cccc(OC(F)(F)F)c2)CC1 (stereo not drawn)", "melting point": "104.4 to 105.5 °C"}
{"COMPOUND": "O=C(C(c1ccccc1)N1C(=O)CCC1=O)N1CCC(c2cccc(OC(F)(F)F)c2)CC1 (racemic)", "melting point": "112.1 to 113.2 °C"}
{"COMPOUND": "O=C(C(Cc1ccccc1)N1C(=O)CCC1=O)N1CCN(c2cccc(Cl)c2)CC1 (stereo not drawn)", "melting point": "114.3 to 116.2 °C"}
{"COMPOUND": "O=C(C(c1ccccc1)N1C(=O)CCC1=O)N1CCN(c2cc(Cl)cc(Cl)c2)CC1 (racemic)", "melting point": "163.8 to 165.2 °C"}
{"COMPOUND": "O=C(C(c1ccccc1)N1C(=O)CCC1=O)N1CCN(c2ccc(OC(F)(F)F)cc2)CC1 (racemic)", "melting point": "102.3 to 103.5 °C"}
{"COMPOUND": "O=C(C(c1ccccc1)N1C(=O)CCC1=O)N1CCN(c2ccccc2)CC1 (racemic)", "melting point": "156.7 to 157.4 °C"}

---

Assay: Rotarod test (motor coordination)
Assay type: in vivo
Conditions: male, Swiss albino (CD-1), mouse, in vivo, ip, mice

{"COMPOUND": "O=C([C@@H](c1ccccc1)N1C(=O)CCC1=O)N1CCN(c2cccc(C(F)(F)F)c2)CC1 [(R)-6]", "RELATION OPERATOR": "=", "TD50 at 0.5 h / mg/kg": 468}
{"COMPOUND": "O=C(C(c1ccc(F)cc1)N1C(=O)CCC1=O)N1CCN(c2cccc(C(F)(F)F)c2)CC1 (racemic)", "RELATION OPERATOR": ">", "TD50 at 0.5 h / mg/kg": 300}
{"COMPOUND": "O=C([C@@H](c1ccccc1)N1C(=O)CCC1=O)N1CCN(c2cccc(OC(F)(F)F)c2)CC1 [(R)-10]", "RELATION OPERATOR": ">", "TD50 at 0.5 h / mg/kg": 150}
{"COMPOUND": "O=C(C(c1ccccc1)N1C(=O)CCC1=O)N1CCN(c2ccccc2)CC1 (racemic)", "RELATION OPERATOR": ">", "TD50 at 0.5 h / mg/kg": 300}
{"COMPOUND": "O=C([C@H](c1ccccc1)N1C(=O)CCC1=O)N1CCN(c2cccc(C(F)(F)F)c2)CC1 [(S)-6]", "RELATION OPERATOR": ">", "TD50 at 0.5 h / mg/kg": 300}
{"COMPOUND": "Cc1cccc(N2CCN(C(=O)C(c3ccccc3)N3C(=O)CCC3=O)CC2)c1 (racemic)", "RELATION OPERATOR": "=", "TD50 at 0.5 h / mg/kg": 171}
{"COMPOUND": "O=C(C(c1ccccc1)N1C(=O)CCC1=O)N1CCN(c2cc(Cl)cc(Cl)c2)CC1 (racemic)", "RELATION OPERATOR": ">", "TD50 at 0.5 h / mg/kg": 300}
{"COMPOUND": "O=C([C@@H](c1ccccc1)N1C(=O)CCC1=O)N1CCN(c2cccc(Cl)c2)CC1 [(R)-3]", "RELATION OPERATOR": "=", "TD50 at 0.5 h / mg/kg": 223}
{"COMPOUND": "O=C(C(c1ccccc1)N1C(=O)CCC1=O)N1CCN(c2cccc(OC(F)(F)F)c2)CC1 (racemic)", "RELATION OPERATOR": "=", "TD50 at 0.5 h / mg/kg": 74}
{"COMPOUND": "O=C(C(c1ccccc1)N1C(=O)CCC1=O)N1CCN(c2cccc(C(F)F)c2)CC1 (racemic)", "RELATION OPERATOR": "=", "TD50 at 0.5 h / mg/kg": 274}
{"COMPOUND": "O=C(C(c1ccccc1)N1C(=O)CCC1=O)N1CCN(c2cccc(Cl)c2)CC1 (racemic)", "RELATION OPERATOR": "=", "TD50 at 0.5 h / mg/kg": 144}
{"COMPOUND": "O=C(C(c1ccccc1)N1C(=O)CCC1=O)N1CCN(c2cccc(-c3ccccc3)c2)CC1 (racemic)", "RELATION OPERATOR": "=", "TD50 at 0.5 h / mg/kg": 73.6}
{"COMPOUND": "O=C(C(c1ccccc1)N1C(=O)CCC1=O)N1CCN(c2cccc(C(F)(F)F)c2)CC1 (racemic)", "RELATION OPERATOR": "=", "TD50 at 0.5 h / mg/kg": 196}
{"COMPOUND": "O=C(C(c1ccccc1)N1C(=O)CCC1=O)N1CCC(c2cccc(C(F)(F)F)c2)CC1 (racemic)", "RELATION OPERATOR": "=", "TD50 at 0.5 h / mg/kg": 254}

---

Structures can show the parent of a compound that is named as a salt.

{"MOLECULE": "CN(C)C1CC(=O)N(C(C(=O)N2CCN(c3cccc(C(F)(F)F)c3)CC2)c2ccccc2)C1=O.Cl (stereo not shown)", "melting point": "157.8 to 159.2 °C"}
{"MOLECULE": "O=C(C(Cc1ccccc1)N1C(=O)CCC1=O)N1CCN(c2cccc(-c3ccccc3)c2)CC1 (stereo not shown)", "melting point": "119.1 to 120 °C"}
{"MOLECULE": "O=C([C@@H](c1ccccc1)N1C(=O)CCC1=O)N1CCN(c2cc(Cl)cc(Cl)c2)CC1 [(R)-4]", "melting point": "174.3 to 175.5 °C"}
{"MOLECULE": "CCN(CC)C1CC(=O)N(C(C(=O)N2CCN(c3cccc(C(F)(F)F)c3)CC2)c2ccccc2)C1=O.Cl (stereo not shown)", "melting point": "142.2 to 143.1 °C"}
{"MOLECULE": "O=C(C(c1ccccc1)N1C(=O)CCC1=O)N1CCN(c2cccc(Cl)c2)CC1 (racemic)", "melting point": "128.1 to 129 °C"}
{"MOLECULE": "O=C(C(c1ccccc1)N1C(=O)CCC1=O)N1CCN(c2ccc3sccc3c2)CC1 (racemic)", "melting point": "164.1 to 165.3 °C"}
{"MOLECULE": "O=C(C(Cc1ccccc1)N1C(=O)CCC1=O)N1CCN(c2cccc(C(F)(F)F)c2)CC1 (stereo not shown) (as salt: salt)", "melting point": "126.1 to 127.2 °C"}

FYI, the data here is from patent US12139458B2.
